# Target Under Test: T1, recombinant human Ang2-FLD (human, UniProt O15123 275-496, limits assumed)
# T1 construct: domain: FLD; not used
# T1 sequence (looked up): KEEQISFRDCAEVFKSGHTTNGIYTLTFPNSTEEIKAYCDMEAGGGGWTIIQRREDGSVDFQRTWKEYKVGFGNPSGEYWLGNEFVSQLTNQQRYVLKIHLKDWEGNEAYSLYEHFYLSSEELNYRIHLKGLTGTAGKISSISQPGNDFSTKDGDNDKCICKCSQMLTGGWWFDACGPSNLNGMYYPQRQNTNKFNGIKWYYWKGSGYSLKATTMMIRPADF
# Protocol Notes: ProteOn off-rate assay, periplasmic extract 1:10 over coated human Ang2-FLD
Reported fold improvement (off-rate against VHH 00027) values are given for each entry in this list.
Please reply with the bare figure in fold and do not write the unit itself.

VHH 64A03 (VHH, periplasmic extract; not shown: C-terminal c-myc tag and His6 tag) VHH: EVQLLESGGGLVQAGGSLRLSCAASGFTLDDYAIGWFRQAPGKEREGVSSIRDNDGSTYYADSVKGRFTISSDNDKNTVYLQMNSLKPEDTAVYYCAAVPAGRLRIGEQWYPIYEYDAWGQGTLVTVSS = 8.3
VHH 64B01 (VHH, periplasmic extract; not shown: C-terminal c-myc tag and His6 tag) VHH: EVQLVESGGGLVQAGGTLRLSCAVSGFTLDDYAIGWFRQAPGKEREGVSSIRDNDGSTYYADSVKGRFTISSDNDKNTVYLQMNSLKPEDTAVYYCAAVPAGRLRFGEQWYPIYEYDAWGQGILVTVSS = 8.2
VHH 64C07 (VHH, periplasmic extract; not shown: C-terminal c-myc tag and His6 tag) VHH: EVHLVESGGGLVQAGGSLRLSCAASGLTLDDYAIGWFRQAPGVEREGVSSIRDNDGSTYYADSVKGRFTISSDNDKNTVYLQMNSLKPEDTAVYYCAAVPAGRLRFGEQWYPIYEYDAWGQGTLVTVSS = 8.3

Give the value of fold improvement (off-rate against VHH 00027) reported for the following: VHH 64G12 (VHH, periplasmic extract; not shown: C-terminal c-myc tag and His6 tag) VHH: EVQLVESGGGLVQAGGSLRLSCAVSGFTLDDYAIGWFRQAPGKEREGVSSIRENDGSTYYADSVQGRFTISSDNDKNTVYLRMNSLKPEDTAVYYCAAVPAGRLRFGEQWYPIYEYDAWGQGTLVTVSS 8.9
